target: recombinant purified human IL-12 p70 (human) (UniProt P29459); test: SPR (Biacore 3000), mAb captured via goat anti-mouse IgG Fc, human IL-12 p70 in solution
Sequence (chain, as listed by the source, form in doubt, chain 1 of 2): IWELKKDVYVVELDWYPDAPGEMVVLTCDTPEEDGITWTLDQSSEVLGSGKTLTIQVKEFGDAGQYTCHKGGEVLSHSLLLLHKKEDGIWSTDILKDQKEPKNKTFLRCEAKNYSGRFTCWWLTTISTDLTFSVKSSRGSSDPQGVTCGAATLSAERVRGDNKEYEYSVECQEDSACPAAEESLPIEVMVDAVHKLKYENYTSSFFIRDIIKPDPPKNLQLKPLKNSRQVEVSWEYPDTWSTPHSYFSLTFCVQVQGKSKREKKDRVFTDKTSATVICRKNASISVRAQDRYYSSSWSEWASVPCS
Sequence (P29459 23-219, form in doubt, chain 2 of 2): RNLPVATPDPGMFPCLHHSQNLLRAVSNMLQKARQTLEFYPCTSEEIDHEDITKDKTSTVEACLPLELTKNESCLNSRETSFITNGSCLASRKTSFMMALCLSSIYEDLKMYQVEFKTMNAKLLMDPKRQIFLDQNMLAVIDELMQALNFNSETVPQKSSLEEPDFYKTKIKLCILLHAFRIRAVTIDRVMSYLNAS
For each record, write down the corresponding kon.
Numbers only; they are read as M⁻¹ s⁻¹.

IN: // returns reported kon for input 4B4 (antibody, V domains shown) VH: QVTLKESGPGILKPSQTLSLTCSLSGFSLSTSGMGVSWIRQPSGKGLEWLAHIWWDGDSYSNPSLRSRLTISRDTSRNQVFLRIATVDTADTATYYCARRTRVNYAMDYWGQGTSVTVSS VL: SVVMTQTPKFLLVSAGDRVTMTCKASQSVSNDVAWFQQKPGQSPKLLIYYASNRYTGVPDRFTGSGYGTDFTFTISTVQAEDLAVYFCQQDYNSPWTFGGGTKLEIKR
OUT: 130000

IN: // returns reported kon for input 1A6 (antibody, V domains shown) VH: QVTLKESGPGILKPSQTLSLTCSFSGFSLSTSGMGVSWIRQPSGKGLEWLAHIWWDGDNYYNPSLKSQLTISKDTSRNQVFLRIATVDTADTATYYCARRTRVNYAMDYWGQGTSVTVSS VL: SVVMTQTPKFLLVSAGDRVTITCKASQSVSNDVAWFQQKPGQSPKLLIYYASNRYTGVPDRFTGSGYGTDFTFTISTVQAEDLAVYFCQQDYNSPWTFGGGTKLEIKR
OUT: 150000

IN: // returns reported kon for input 1D8 (antibody, V domains shown) VH: QVQLQQSGAELMKPGASVKISCKATGYTFSSYWIEWVKQRPGHGLEWIGDILPGSGSTNYNEKFKDKATFTADTSFNTAYMQLSSLTSEDSAVYYCATRRFRGLDYWGQGTTLTVSS VL: SIVMTQTPKFLLVSAGDRVTITCKASQSVSNDVAWYQQKSGQSPKLLIYYASNRYTGVPDRFTGSGYGTDFTFTISTVQPEDLAVYFCQQDYTSPFTFGSGTKLEIKR
OUT: 510000
